Values were extracted from PubChem BioAssay (NCI).

System: SW-620 colon
Assay: NCI-60 one-dose screen, 48 h
Conditions: 10 µM unless noted
Procedure: Growth inhibition of the SW-620 human tumor cell line is measured as a screen for anti-cancer activity. Cells are grown in 96 well plates and exposed to the test compound for 48 hours. Compounds are tested at a single concentration, which is 10^-5 M for most compounds. The reported endpoint is percent growth (GI% or GIPRCNT), where numbers from 0 - 100% represent growth inhibition, and numbers from -100% - 0 represent cell death. For example, a value of 40 represents 60% growth inhibition. […]
This is part of a sample that, as a whole, favours compounds with a hit. Of some 83,000 tested, about 20% had one in any assay. Activity calls are given as the source filed them. The calls were made as follows: active = growth percent below 10; inactive = the rest.
Classes used: active, inactive

compound: Cc1cccc2c(=O)c3c(sc12)c(NCCN)nc1ccccc13
group: active
//
compound: O=NN(C(=O)NC1CCC(C(=O)O)CC1)C1CCC(C(=O)O)CC1 (centres undefined)
group: inactive
//
compound: CCOC(=O)C1=C(C)c2ccc(OC)c(OC)c2C1
group: inactive
//
compound: Cc1ccc(Cn2c(N3CCC(C(=O)NCc4cccs4)CC3)nc3ccccc32)cc1
group: inactive
//
compound: O=C(NC1CCN(Cc2ccccc2)CC1)c1cc2nc(-c3ccc(Cl)s3)cc(C(F)(F)F)n2n1
group: active
//
compound: Cc1ccc(S(=O)c2ccc([N+](=O)[O-])c3nonc23)cc1 (centres undefined)
group: inactive
//
compound: Cc1cc2c(c(C)c1Cl)C(=O)/C(=C/c1cccc([N+](=O)[O-])c1)O2
group: inactive
//
compound: O=C1OC(c2ccccc2)(c2ccccc2)c2ccsc21
group: inactive
//
compound: CCOC(=O)C1(C(=O)OCC)N=C(c2ccccc2)C=C1c1ccccc1
group: inactive
//
compound: N#C/C(=C\c1c(-c2ccccc2)[nH]c2ccccc12)S(=O)(=O)c1ccccc1
group: inactive
//
compound: Cn1c(/C=C(\C#N)c2ccccc2)nc2c(N3CCOCC3)nc(Cl)nc21
group: active
//
compound: CC(=O)c1ccc(Nc2nc(NCCO)nc(Nc3ccc(Cl)cc3)n2)cc1
group: inactive
//
compound: C[n+]1c2ccccc2nc2ccc(NCCO)cc21
group: inactive
//
compound: CCC1=C[C@@H]2CN(C1)Cc1c([nH]c3ccccc13)[C@@](C(=O)OC)(c1cc3c(cc1OC)N(C)[C@H]1[C@@](O)(C(=O)OC)[C@H](OC(C)=O)[C@]4(CC)[C@@H]5C[C@@H]5CN5CC[C@]31[C@@H]54)C2
group: inactive
//
compound: Cn1c2c(c(=O)[nH]c1=O)NC1=C(C(=O)c3ccccc31)C1(C=C(O)c3ccccc31)N2 (centres undefined)
group: inactive
//
compound: COc1c2ccoc2c(/C=C/C=O)c2oc(-c3ccccc3)cc(=O)c12
group: inactive
//
compound: N#C/C(=C1\SC(=O)CN1c1ccccc1)c1nc2ccccc2s1
group: inactive
//
compound: CSc1nc2c(c(=O)n1C)N=C1c3ccccc3C(=O)C1C(c1ccccc1)N2 (centres undefined)
group: inactive
//
compound: O=C(/C=C/c1cccc(Cl)c1)OCc1ccc2cc1OCC#C/C=C\C#CCO2
group: inactive
//
compound: Cc1ccccc1CNC(=O)C1CN(c2ccc(Cl)cc2)N(c2ccc(Cl)cc2)C1=O (centres undefined)
group: inactive
//
compound: O=C(NC1CCN(Cc2ccccc2)CC1)c1cc(C(=O)NC2CCN(Cc3ccccc3)CC2)cc(C(=O)NC2CCN(Cc3ccccc3)CC2)c1
group: inactive
//
compound: Cc1ccc(OCCCCCCNCCO)c(C)c1
group: inactive
//
compound: O=C(Nc1ccc(N2CCNCC2)cc1)c1[nH]ncc1Nc1ncnc2sc3c(c12)CCC3
group: active
//
compound: CCCN1CCN(c2ccc3nc(-c4ccc5nc(-c6cc(OC)ccc6OC)[nH]c5c4)[nH]c3c2)CC1
group: active
//
compound: CN(C)CCNc1cc(-c2ccccc2)nc2ccccc12
group: active
//
compound: Nc1ccc(-c2nn3c(CCC(=O)c4nc5ncccc5[nH]4)nnc3s2)c(O)c1
group: inactive
//
compound: COC(=O)/C(CCC=C(C)C)=C1\[C@@H](OC(C)=O)C[C@@]2(C)[C@H]1C[C@@H](O)[C@H]1[C@@]3(C)CC[C@H](NCCO)[C@@H](C)[C@@H]3CC[C@@]12C
group: inactive
//
compound: CCN1CCN(C(=S)SCC(=O)Nc2nc3ccc(C)cc3s2)CC1
group: inactive
//
compound: COc1ccc(N)c(-c2cc3c(c4c2[nH]c2ccc(OC)cc24)CCCC3)c1
group: inactive
//
compound: Nc1ccn(C2O[C@H](CO)[C@@H](O)[C@H]2O)c(=O)n1 (some centres undefined)
group: inactive
//
compound: COc1ccc(CSc2nnc(SCC(=O)Nc3ccc(Cl)cc3)s2)cc1
group: inactive
//
compound: Clc1ncccc1Nc1ccc2nnc(-c3ccncc3)n2n1
group: inactive
//
compound: CN1CCN(Cc2ccc(NC(=O)c3cncc(C#Cc4nc(N)nc5[nH]ncc45)c3)cc2C(F)(F)F)CC1
group: inactive
//
compound: CN1CCN(Cc2ccc(C(=O)Nc3cncc(C#Cc4cnc5cccnn45)c3)cc2C(F)(F)F)CC1
group: inactive
//
compound: CCOC(=O)c1cc2c(n1Cc1cccc(OC)c1)-c1oncc1CCC2
group: inactive
//
compound: O=C(/C=C/c1ccc(F)cc1)c1ccc(Nc2nc(NCCO)nc(Nc3ccc(Cl)cc3)n2)cc1
group: inactive
//
compound: O=C1c2ccc3c4c(ccc(c24)C(=O)N1CCCCO)C(=O)N(CCCCO)C3=O
group: inactive
//
compound: COc1cc(C#N)cc2[nH]c(=O)oc12
group: inactive
//
compound: COc1ccc(CCN2C(=O)/C(=C/c3ccc(C4Oc5ccccc5C5CC(c6cccc(OC)c6)=NN54)cc3)SC2=S)cc1 (centres undefined)
group: inactive
